Catalogue of compounds with associated pIC50
- measurementTarget: Wee1 kinase domain (Homo sapiens)
- Construct: Wee1 kinase domain was purchased from Carna (catalog #05-177); purchased Carna 05-177
- testProtocol: Wee1 Kinase Biochemical Assay (ADP-Glo)
- statedConditions: Wee1 kinase domain, 15 uM ATP, ADP-Glo
pIC50: −log10 of the molar value.

Fill blank: measured pIC50 of the compound C[C@H]1COC(=O)N1c1cccc(N2c3nc(Nc4ccc(N5CC6(CN(C)C6)C5)cc4)ncc3[C@@]3(C)COC(C)(C)C[C@@H]23)n1 (single isomer, unassigned) is ____.
> 8.00

Requested field: pIC50. Item: Cc1cc(Nc2ncc3c(n2)N(c2cccc(N4C(=O)OC[C@@H]4C)n2)[C@@H]2CC(C)(C)OC[C@]32C)ccc1N1CCN(C)CC1 (single isomer, unassigned)
> 8.00

Next:
Would you mind telling me what pIC50 value was observed for C[C@H]1COC(=O)N1c1cccc(N2c3nc(Nc4ccc(O[C@H]5CCNC5)nc4)ncc3[C@]3(C)COC(C)(C)C[C@H]23)n1 (single isomer, unassigned) ?
7.00 to 8.00

---

- measurementTarget: Wee1 kinase domain (Homo sapiens, UniProt P30291)
- Construct: Wee1 kinase domain was purchased from Carna (catalog #05-177); purchased Carna 05-177
- Sequence (P30291 299-569 limits assumed): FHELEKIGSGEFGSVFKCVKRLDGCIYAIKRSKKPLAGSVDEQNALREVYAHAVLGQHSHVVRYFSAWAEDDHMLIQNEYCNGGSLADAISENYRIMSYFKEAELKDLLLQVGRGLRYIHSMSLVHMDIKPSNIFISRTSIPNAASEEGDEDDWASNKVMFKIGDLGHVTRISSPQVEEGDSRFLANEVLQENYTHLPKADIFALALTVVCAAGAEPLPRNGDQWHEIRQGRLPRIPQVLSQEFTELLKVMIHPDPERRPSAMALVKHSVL
- testProtocol: Wee1 Kinase Biochemical Assay (ADP-Glo)
- statedConditions: Wee1 kinase domain, 15 uM ATP, ADP-Glo
- Description: Wee1 Kinase Biochemical Assay Protocol Wee1 kinase domain was purchased from Carna (catalog #05-177). Wee1 kinase activity was determined with Poly(Lys,Tyr 4:1) hydrobromide as a substrate (Sigma-Aldrich) and by measuring ADP production using the ADP-Glo Kinase Assay kit (Promega) following the manufacturer's instructions. […] The ADP-Glo signal was measured using the Envision plate reader and the percentage inhibition of kinase activity calculated for each inhibitor tested. […]
pIC50: −log10 of the molar value.
metric: pIC50

Example results:
Request - read-out pIC50 | tested on Wee1 kinase domain (Homo sapiens, UniProt P30291) | compound C[C@H]1CN(c2ccc(Nc3ncc4c(n3)N(c3cccc(N5C(=O)OC[C@@H]5C)n3)[C@H]3CC(C)(C)OC[C@@]43C)cc2)CCN1C (single isomer, unassigned)
7.00 to 8.00

API: value(readout=pIC50, system=Wee1 kinase domain (Homo sapiens, UniProt P30291)) for record CN1CC(c2ccc(Nc3ncc4c(n3)N(c3cccc(N=S(C)(C)=O)n3)[C@H]3CC(C)(C)OC[C@@]43C)cc2F)C1 (single isomer, unassigned)
6.00 to 7.00

Give Wee1 kinase domain (Homo sapiens, UniProt P30291) pIC50 for CN[C@H]1CCN(c2ccc(Nc3ncc4c(n3)N(c3cccc(N5C(=O)OC[C@@H]5C)n3)[C@@H]3CC(C)(C)OC[C@]43C)cc2)C1 (single isomer, unassigned)
> 8.00

Test system Wee1 kinase domain (Homo sapiens, UniProt P30291); read-out pIC50; what value for CN1CC[C@H](n2cc(Nc3ncc4c(n3)N(c3cccc(N=S(C)(C)=O)n3)[C@@H]3CC(C)(C)OC[C@]43C)cn2)C1 (single isomer, unassigned) ?
> 8.00

---
Fill in the recorded pIC50 for this compound, with Wee1 kinase domain (Homo sapiens, UniProt P30291) as test system: Cc1cc(Nc2ncc3c(n2)N(c2cccc(N=S(C)(C)=O)n2)[C@@H]2CC(C)(C)OC[C@]32C)ccc1[C@H]1CCN(C)C1 (single isomer, unassigned)
> 8.00

---

- measurementTarget: Wee1 kinase domain (Homo sapiens)
- Construct: Wee1 kinase domain was purchased from Carna (catalog #05-177); purchased Carna 05-177
- testProtocol: Wee1 Kinase Biochemical Assay (ADP-Glo)
- statedConditions: Wee1 kinase domain, 15 uM ATP, ADP-Glo
pIC50: −log10 of the molar value.
metric: pIC50

Past entries and their recorded results:
# query: pIC50 | item CNCc1cccc(N2c3nc(Nc4cnn(C(C)(C)C)c4)ncc3[C@]3(C)COC(C)(C)C[C@H]23)n1 (single isomer, unassigned) | system: Wee1 kinase domain (Homo sapiens)
6.00 to 7.00

Find pIC50 (Wee1 kinase domain (Homo sapiens)) for the entry C[C@H]1CN(c2ccc(Nc3ncc4c(n3)N(c3cccc(N5C(=O)OC[C@@H]5C)n3)[C@@H]3CC(C)(C)OC[C@]43C)cc2)CCN1C (single isomer, unassigned)
> 8.00

Reported pIC50 for Wee1 kinase domain (Homo sapiens), given CN1C[C@@H]2C[C@H]1CN2c1ccc(Nc2ncc3c(n2)N(c2cccc(N=S(C)(C)=O)n2)[C@@H]2CC(C)(C)OC[C@]32C)cc1 (single isomer, unassigned) ?
> 8.00

Form: Entry = C[C@H]1COC(=O)N1c1cccc(N2c3nc(Nc4ccc([C@H]5CCNC5)nc4)ncc3[C@]3(C)COC(C)(C)C[C@H]23)n1 (single isomer, unassigned) | System = Wee1 kinase domain (Homo sapiens) | pIC50 = ____
6.00 to 7.00

# get_value(readout= pIC50, system= Wee1 kinase domain (Homo sapiens)) for Cc1cc(Nc2ncc3c(n2)N(c2cccc(N=S(C)(C)=O)n2)[C@@H]2CC(C)(C)OC[C@]32C)ccc1[C@@H]1CCN(C)C1 (single isomer, unassigned)
> 8.00

Field: next compound
Identify the measured pIC50 of C[C@H]1COC(=O)N1c1cccc(N2c3nc(Nc4ccc(N5C[C@H]6C[C@@H](C5)N6C)cc4)ncc3[C@@]3(C)COC(C)(C)C[C@@H]23)n1 (single isomer, unassigned) for Wee1 kinase domain (Homo sapiens).
> 8.00

---

- measurementTarget: Wee1 kinase domain (Homo sapiens)
- Construct: Wee1 kinase domain was purchased from Carna (catalog #05-177); purchased Carna 05-177
- testProtocol: Wee1 Kinase Biochemical Assay (ADP-Glo)
- statedConditions: Wee1 kinase domain, 15 uM ATP, ADP-Glo
metric: IC50

Below are worked cases with known answers.
# IC50 lookup, item CC1(C)C[C@H]2N(c3cccc(N=S(C)(C)=O)n3)c3nc(NC(=O)[C@H]4C[C@@H]4c4ccccc4)ncc3[C@@]2(C)CO1 (single isomer, unassigned) [Example 397]
< 10 nM

What measured IC50 goes with CNCc1cccc(N2c3nc(Nc4ccc([C@H]5CCOC5)cc4)ncc3[C@]3(C)COC(C)(C)C[C@H]23)n1 (single isomer, unassigned) [Example 39] ?
100 to 1000 nM

Consider the additional compound presented here.
GET /values?readout=IC50&item= CNCc1cccc(N2c3nc(Nc4ccc(C5CCOCC5)nc4)ncc3[C@]3(C)COC(C)(C)C[C@H]23)n1 (single isomer, unassigned) [Example 55]
≥ 1000 nM

---

Some molecules, each annotated with its measured pIC50.
- measurementTarget: Wee1 kinase domain (Homo sapiens, UniProt P30291)
- Construct: Wee1 kinase domain was purchased from Carna (catalog #05-177); purchased Carna 05-177
- testProtocol: Wee1 Kinase Biochemical Assay (ADP-Glo)
- statedConditions: class symbols; 1 nM Wee1 enzyme, 15 uM ATP, 4 hours at 25° C.
pIC50: −log10 of the molar value.

Here is how some molecules turned out for pIC50.
Please look up its pIC50: "CN1CC[C@H](Oc2ccc(Nc3ncc4c(n3)N(c3cccc(N5CCCC5=O)n3)[C@H]3CC(C)(C)OC[C@@]43C)cc2)C1"
7.00 to 8.00

Item under review: Cn1cc(Nc2ncc3c(n2)N(c2cccc(N=S(C)(C)=O)n2)[C@@H]2CC(C)(C)OC[C@]32C)nn1 (single isomer, unassigned) . Reported pIC50?
> 8.00

So what does the record say about pIC50 for CC1(C)C[C@H]2N(c3cccc(N=S(C)(C)=O)n3)c3nc(Nc4ccc(N5CCN6CCC[C@H]6C5)cc4)ncc3[C@@]2(C)CO1 (single isomer, unassigned) ?
> 8.00

// lookup pIC50 for CNCc1cccc(N2c3nc(Nc4ccc(N5CCOC[C@@H]5C)cc4)ncc3[C@@]3(C)COC(C)(C)C[C@@H]23)n1 (single isomer, unassigned)
> 8.00

May I ask what pIC50 has been recorded for Cn1ncc(Nc2ncc3c(n2)N(c2cccc(N=S(C)(C)=O)n2)[C@@H]2CC(C)(C)OC[C@]32C)c1F (single isomer, unassigned) ?
> 8.00

Here's the next entry for you.
I am curious: what pIC50 value has been reported for "CN1CC[C@H](c2ccc(Nc3ncc4c(n3)N(c3cccc(N5CCCC5=O)n3)[C@@H]3CC(C)(C)OC[C@]43C)cc2)C1" ?
> 8.00

---

- Test system: phosphorylation of Cdc2 Y15 (Wee1 substrate) in A427 cells
- testProtocol: Phosphorylated Cdc2 MSD Electrochemiluminescence Assay
- Format: cell-based
- statedConditions: Homo sapiens, A-427, pCDC2 MSD
metric: IC50

What value of IC50 has been recorded for this entry: CNC(=O)c1ccc(Nc2ncc3c(n2)N(c2cccc(N=S(C)(C)=O)n2)[C@@H]2CC(C)(C)OC[C@]32C)cc1 (single isomer, unassigned)
< 100 nM

GET /values?readout=IC50&item= CNCc1cccc(N2c3nc(Nc4ccc5c(c4)C(=O)N(C)C5)ncc3[C@@]3(C)COC(C)(C)C[C@@H]23)n1 (single isomer, unassigned)
100 to 1000 nM

State the recorded IC50 for this entry: [2H]C([2H])([2H])n1ccc(Nc2ncc3c(n2)N(c2cccc(N=S(C)(C)=O)n2)[C@@H]2CC(C)(C)OC[C@]32C)cc1=O (single isomer, unassigned)
100 to 1000 nM

Can you share its IC50? I mean this compound: CN1CCC(c2ccc(Nc3ncc4c(n3)N(c3cccc(N=S(C)(C)=O)n3)[C@@H]3CC(C)(C)OC[C@]43C)cn2)CC1 (single isomer, unassigned)
< 100 nM

***
Requested field: IC50. Item: Cc1cc(Nc2ncc3c(n2)N(c2cccc(N=S(C)(C)=O)n2)[C@@H]2CC(C)(C)OC[C@]32C)ccc1[C@H]1COCCN1 (single isomer, unassigned)
< 100 nM

Can you share its IC50? I mean this compound: CC1(C)C[C@@H]2N(c3cccc(N=S(C)(C)=O)n3)c3nc(Nc4ccc([C@]5(C)CCNC5)cc4)ncc3[C@]2(C)CO1 (single isomer, unassigned)
< 100 nM

Reported IC50 for CN1CC[C@H](Oc2ccc(Nc3ncc4c(n3)N(c3cccc(N=S(C)(C)=O)n3)[C@@H]3CC(C)(C)OC[C@]43C)cc2)C1 (single isomer, unassigned) : what is it?
< 100 nM

Endpoint output: IC50 of C[C@H]1COC(=O)N1c1cccc(N2c3nc(Nc4ccc(O[C@@H]5CCNC5)cc4)ncc3[C@@]3(C)COC(C)(C)C[C@@H]23)n1 (single isomer, unassigned) . Value?
100 to 1000 nM

So what's the measured IC50 for this one? Cc1cc(Nc2ncc3c(n2)N(c2cccc(N4C(=O)OC[C@@H]4C)n2)[C@@H]2CC(C)(C)OC[C@]32C)ccc1[C@@H]1CCNC1 (single isomer, unassigned)
100 to 1000 nM

Dear colleague, I am looking for the recorded IC50 of the following compound: CN1CC[C@@H](n2ccc(Nc3ncc4c(n3)N(c3cccc(N=S(C)(C)=O)n3)[C@@H]3CC(C)(C)OC[C@]43C)n2)C1 (single isomer, unassigned)
1000 to 10000 nM

Value lookup for IC50; key = CN1CC(c2ccc(Nc3ncc4c(n3)N(c3cccc(N=S(C)(C)=O)n3)[C@@H]3CC(C)(C)OC[C@]43C)cc2Cl)C1 (single isomer, unassigned)
< 100 nM
